Biological target: T1, human SLITRK6 extracellular domain linked to his tag (human, UniProt Q9H5Y7 27-608)
T1 construct: extracellular domain; also called huSLITRK6; Hu SLITRK6; not shown: his tag
Experiment: BLI binning on huSLITRK6-his; Ab1 = row antibody first, then Ab2 (competitor) = hu1H2-03
REPORTED ENDPOINT: epitope binning signal

>>> measured_value("hu1H2-13 (antibody, V domains shown) VH: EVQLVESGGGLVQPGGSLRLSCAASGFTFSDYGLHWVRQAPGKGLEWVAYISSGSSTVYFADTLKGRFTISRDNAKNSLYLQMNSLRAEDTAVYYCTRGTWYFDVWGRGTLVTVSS VL: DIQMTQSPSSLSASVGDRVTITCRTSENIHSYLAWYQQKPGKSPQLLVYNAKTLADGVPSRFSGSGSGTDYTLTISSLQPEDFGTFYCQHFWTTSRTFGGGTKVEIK")
0.0288

Taken from patent US20250296992A1.
